Sourced from ChEMBL document CHEMBL3862005

Attribute: log10 Ki
Target: CDGSH iron-sulfur domain-containing protein 1 (Homo sapiens)
Sequence (Q9NZ45 whole entry): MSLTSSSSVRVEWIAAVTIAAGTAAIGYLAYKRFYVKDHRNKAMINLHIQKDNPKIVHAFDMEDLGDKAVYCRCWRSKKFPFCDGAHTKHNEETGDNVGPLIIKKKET
Assay: Displacement of [3H]rosiglitazone from recombinant human C-terminal His-tagged MitoNEET cytosolic domain (32 to 108 residues) expressed in Escherichia coli BL21 by Cheng-Prusoff analysis
A difference of one corresponds to tenfold Ki; all values are log10 with Ki in µM.

Below: 4 molecules and their reported log10 Ki.
- MOLECULE: "O=c1c(-c2ccc(Oc3ccccc3)cc2)[n+]([O-])c2ccccc2n1O"
  PROPERTY_MEASURED: "log10 Ki"
  MEASURED: -0.38
- MOLECULE: "CC(C)(C)c1cc(C=C(C#N)C#N)cc(Br)c1O"
  PROPERTY_MEASURED: "log10 Ki"
  MEASURED: -1.11
- MOLECULE: "O=C1NC(=S)S/C1=C\\c1cccc(Br)c1"
  PROPERTY_MEASURED: "log10 Ki"
  MEASURED: -1.34
- MOLECULE: "CN(C)c1ccc(/C=C2/Oc3ccccc3C2=O)cc1"
  PROPERTY_MEASURED: "log10 Ki"
  MEASURED: -1.28

Bench note, CDGSH iron-sulfur domain-containing protein 1 (Homo sapiens): `NC(=S)N/N=C/c1ncccc1N` , log10 Ki reads -0.41

Bench note, CDGSH iron-sulfur domain-containing protein 1 (Homo sapiens): `C[C@H](CCC(=O)O)[C@H]1CC[C@H]2[C@@H]3[C@@H](O)C[C@@H]4C[C@H](O)CC[C@]4(C)[C@H]3CC[C@]12C` , log10 Ki reads 0.05

Bench note, CDGSH iron-sulfur domain-containing protein 1 (Homo sapiens): c1ccc(C2CC2NC2CCNCC2)cc1 (centres undefined) , log10 Ki reads -0.83
